Biological target: Amine oxidase [flavin-containing] B (Homo sapiens)
Sequence (P27338 whole entry): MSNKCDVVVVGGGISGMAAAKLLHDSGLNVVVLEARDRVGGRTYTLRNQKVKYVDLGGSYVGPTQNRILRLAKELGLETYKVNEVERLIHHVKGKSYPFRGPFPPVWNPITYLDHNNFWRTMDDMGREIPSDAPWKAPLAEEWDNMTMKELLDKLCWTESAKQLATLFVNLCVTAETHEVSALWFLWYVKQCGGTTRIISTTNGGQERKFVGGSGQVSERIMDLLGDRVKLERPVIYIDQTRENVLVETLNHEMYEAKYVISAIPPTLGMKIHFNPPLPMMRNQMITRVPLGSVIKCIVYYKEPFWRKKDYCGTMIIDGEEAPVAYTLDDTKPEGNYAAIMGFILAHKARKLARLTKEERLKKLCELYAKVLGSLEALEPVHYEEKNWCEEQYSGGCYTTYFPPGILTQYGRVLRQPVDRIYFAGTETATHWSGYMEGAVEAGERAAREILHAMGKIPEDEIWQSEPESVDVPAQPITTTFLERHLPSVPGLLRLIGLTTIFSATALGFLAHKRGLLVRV
Test: Inhibition of recombinant human MAOB expressed in baculovirus infected BTI insect cells using p-tyramine as substrate preincubated for 30 mins followed by substrate addition and measured over 15 mins by Amplex red reagent/horseradish peroxidase coupled fluorescence assay
pIC50: −log10 of the molar value.
PARAMETER: pIC50

compound="C#CCNC1CCc2c(NCc3ccccc3)cccc21 (stereo unspecified)" parameter=pIC50 modifier_sign=< observed_result=4.70
compound="C#CCNC1CCc2c(OCCc3cc(NC(C)=O)ccc3Cl)cccc21 (stereo unspecified)" parameter=pIC50 modifier_sign== observed_result=6.23
compound="C#CCNC1CCc2c(SCc3ccc(Cl)cc3)cccc21 (stereo unspecified)" parameter=pIC50 modifier_sign== observed_result=6.74
compound="C#CCNC1CCc2c(NCc3ccc(F)cc3)cccc21 (stereo unspecified)" parameter=pIC50 modifier_sign== observed_result=6.01
compound="C#CCNC1CCc2c(OCCc3cc(NC(=O)c4ccc(F)cc4)ccc3Cl)cccc21 (stereo unspecified)" parameter=pIC50 modifier_sign== observed_result=5.29
compound="C#CCNC1CCc2c(NCc3cccc(C)c3)cccc21 (stereo unspecified)" parameter=pIC50 modifier_sign== observed_result=6.15
compound="C#CCNC1CCc2c(OCCc3cc(NC(=O)C(C)(C)C)ccc3F)cccc21 (stereo unspecified)" parameter=pIC50 modifier_sign=< observed_result=4.70
compound="C#CCNC1CCc2c(OCCc3cc(NC(=O)COC(C)=O)ccc3Cl)cccc21 (stereo unspecified)" parameter=pIC50 modifier_sign== observed_result=6.32
compound="C#CCNC1CCc2c(OCCc3cc(NC(=O)CO)ccc3Cl)cccc21 (stereo unspecified)" parameter=pIC50 modifier_sign== observed_result=6.57
compound="C#CCNC1CCc2c(NCc3ccc(C)cc3)cccc21 (stereo unspecified)" parameter=pIC50 modifier_sign== observed_result=6.60
compound="C#CCNC1CCc2c(SCc3ccc(C(C)(C)C)cc3)cccc21 (stereo unspecified)" parameter=pIC50 modifier_sign=< observed_result=4.70

---

Target: UniProt:P21397
Sequence (P21397 whole entry): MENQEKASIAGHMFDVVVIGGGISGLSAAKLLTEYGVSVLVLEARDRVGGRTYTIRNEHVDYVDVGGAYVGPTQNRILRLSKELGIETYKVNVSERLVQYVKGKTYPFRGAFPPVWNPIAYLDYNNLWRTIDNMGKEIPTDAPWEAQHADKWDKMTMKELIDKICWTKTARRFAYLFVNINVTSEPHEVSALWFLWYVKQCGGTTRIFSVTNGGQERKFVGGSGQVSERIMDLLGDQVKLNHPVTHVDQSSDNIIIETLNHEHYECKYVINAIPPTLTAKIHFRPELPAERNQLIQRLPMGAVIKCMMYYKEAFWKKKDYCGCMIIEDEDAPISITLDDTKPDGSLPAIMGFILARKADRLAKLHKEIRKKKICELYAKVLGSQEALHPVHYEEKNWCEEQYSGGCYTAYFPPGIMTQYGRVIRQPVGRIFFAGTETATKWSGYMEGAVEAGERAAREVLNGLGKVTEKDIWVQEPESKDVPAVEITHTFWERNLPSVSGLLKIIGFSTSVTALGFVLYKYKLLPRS
Assay: Inhibition of recombinant human MAOA expressed in baculovirus infected BTI insect cells using p-tyramine as substrate preincubated for 30 mins followed by substrate addition and measured over 15 mins by Amplex red reagent/horseradish peroxidase coupled fluorescence assay
IC50 values, listed per item
PARAMETER: IC50 (µM)

molecule="C#CCNC1CCc2c(OCCc3cc(NC(=O)CO)ccc3Cl)cccc21 (configuration not stated)" parameter=IC50 modifier_sign== observed_result=252
molecule="C#CCNC1CCc2c(NCc3ccc(C)cc3)cccc21 (configuration not stated)" parameter=IC50 modifier_sign== observed_result=43.1
molecule="C#CCNC1CCc2c(NCc3cccc(Br)c3)cccc21 (configuration not stated)" parameter=IC50 modifier_sign== observed_result=94.3
molecule="C#CCNC1CCc2c(OCCc3cc(NC(=O)COC(C)=O)ccc3Cl)cccc21 (configuration not stated)" parameter=IC50 modifier_sign== observed_result=436
molecule="C#CCNC1CCc2c(SCc3ccc(Cl)cc3)cccc21 (configuration not stated)" parameter=IC50 modifier_sign== observed_result=0.23
molecule="C#CCNC1CCc2c(SCc3ccc(F)cc3)cccc21 (configuration not stated)" parameter=IC50 modifier_sign=< observed_result=0.1
molecule="C#CCNC1CCc2c(OCCc3cc(NC(C)=O)ccc3Cl)cccc21 (configuration not stated)" parameter=IC50 modifier_sign== observed_result=85.2

---

Target: Amine oxidase [flavin-containing] B (Homo sapiens, UniProt P27338)
Test: Inhibition of recombinant human MAOB expressed in baculovirus infected BTI insect cells using p-tyramine as substrate preincubated for 30 mins followed by substrate addition and measured over 15 mins by Amplex red reagent/horseradish peroxidase coupled fluorescence assay
IC50 by entry:
PARAMETER: IC50 (nM)

molecule="C#CCNC1CCc2c(OCCc3cc(NC(=O)c4ccc(Cl)cc4)ccc3Cl)cccc21 (centres undefined)" target_of_assay="Amine oxidase [flavin-containing] B (Homo sapiens, UniProt P27338)" parameter=IC50 unit_abbrev=nM modifier_sign=> observed_result=20000
molecule="C#CCNC1CCc2c(OCCc3cc(NC(=O)c4ccccc4)ccc3Cl)cccc21 (centres undefined)" target_of_assay="Amine oxidase [flavin-containing] B (Homo sapiens, UniProt P27338)" parameter=IC50 unit_abbrev=nM modifier_sign=> observed_result=20000
molecule="C#CCNC1CCc2c(OCCc3cc(NC(=O)c4cccc(F)c4)ccc3Cl)cccc21 (centres undefined)" target_of_assay="Amine oxidase [flavin-containing] B (Homo sapiens, UniProt P27338)" parameter=IC50 unit_abbrev=nM modifier_sign=> observed_result=20000
molecule="C#CCNC1CCc2c(SCc3ccc(F)cc3)cccc21 (centres undefined)" target_of_assay="Amine oxidase [flavin-containing] B (Homo sapiens, UniProt P27338)" parameter=IC50 unit_abbrev=nM modifier_sign== observed_result=240
molecule="C#CCNC1CCc2c(OCc3cccc(F)c3)cccc21 (centres undefined)" target_of_assay="Amine oxidase [flavin-containing] B (Homo sapiens, UniProt P27338)" parameter=IC50 unit_abbrev=nM modifier_sign== observed_result=2700
molecule="C#CCNC1CCc2c(NCc3cccc(F)c3)cccc21 (centres undefined)" target_of_assay="Amine oxidase [flavin-containing] B (Homo sapiens, UniProt P27338)" parameter=IC50 unit_abbrev=nM modifier_sign== observed_result=1860
molecule="C#CCNC1CCc2c(OCCc3cccc4ccccc34)cccc21 (centres undefined)" target_of_assay="Amine oxidase [flavin-containing] B (Homo sapiens, UniProt P27338)" parameter=IC50 unit_abbrev=nM modifier_sign== observed_result=1900
molecule="C#CCNC1CCc2c(OCCc3cccc(NC(=O)c4ccc(Cl)cc4)c3)cccc21 (centres undefined)" target_of_assay="Amine oxidase [flavin-containing] B (Homo sapiens, UniProt P27338)" parameter=IC50 unit_abbrev=nM modifier_sign== observed_result=360
molecule="C#CCNC1CCc2c(NCc3cccc(Br)c3)cccc21 (centres undefined)" target_of_assay="Amine oxidase [flavin-containing] B (Homo sapiens, UniProt P27338)" parameter=IC50 unit_abbrev=nM modifier_sign== observed_result=110
